Reported −TΔS values follow for various sequences
target: PSB‐I^143–238 construct (peptide‐substrate–binding domain of C‐P4H‐I α‐subunit) (Homo sapiens); construct: made in house; host or cells: E. coli Rosetta(DE3)pLysS, pET22b(+); assay: ITC binding of proline‐rich peptides to the PSB‐I^143–238 construct; details: 25°C, 20 mM Bis‐Tris, 100 mM glycine, pH 6.8, fixed n = 1, average ± SD of three measurements
Sequence (P13674 160-255): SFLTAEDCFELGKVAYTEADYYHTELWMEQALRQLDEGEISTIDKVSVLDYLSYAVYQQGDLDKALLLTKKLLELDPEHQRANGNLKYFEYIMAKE
No end group written: not given here.
Response body: numeric value in kcal/mol, unit text excluded.

Looking for the measured −TΔS of PPGPEGPPG [PPG‐PEG‐PPG] , can you help?
7.67

Looking for the measured −TΔS of PPPPPPPPP [P9, (Pro)9 peptide] , can you help?
3.95

Looking for the measured −TΔS of PPGPPGPPG [(PPG)3, PPG‐PPG‐PPG peptide] , can you help?
8.77

Here's the next entry for you.
Looking for the measured −TΔS of PPGPRGPPG [PPG‐PRG‐PPG] , can you help?
8.87

###

molecular target: PSB‐I^143–238 construct (peptide‐substrate–binding domain of C‐P4H‐I α‐subunit) (Homo sapiens); construct: made in house; host or cells: E. coli Rosetta(DE3)pLysS, pET22b(+); test: ITC binding of proline‐rich peptides to the PSB‐I^143–238 construct; details: 25°C, 20 mM Bis‐Tris, 100 mM glycine, pH 6.8, fixed n = 1, average ± SD of three measurements
No end group written: not given here.
Reported ΔG values follow for various sequences
Response body: numeric value in kcal/mol, unit text excluded.

Looking for the measured ΔG of PPGPEGPPG [PPG‐PEG‐PPG] , can you help?
-5.57

Looking for the measured ΔG of PPGPPGPPG [(PPG)3, PPG‐PPG‐PPG peptide] , can you help?
-4.83

Looking for the measured ΔG of PPPPPPPPP [P9, (Pro)9 peptide] , can you help?
-5.59

Here's the next entry for you.
Looking for the measured ΔG of PPGPRGPPG [PPG‐PRG‐PPG] , can you help?
-6.06

###

biological target: PSB‐II^142–236 construct (peptide‐substrate–binding domain of C‐P4H‐II α‐subunit) (Homo sapiens); construct: Met-His6 (N); made in house; test: ITC binding of proline‐rich peptides to the PSB‐II construct; conditions: 25°C, 50 μM protein, 3 mM peptide, 20 mM Tris, 50 mM NaCl, 50 mM glycine, pH 8.0, one‐set‐of‐sites, fixed n = 1, average ± SD of three measurements
Sequence (O15460 163-257): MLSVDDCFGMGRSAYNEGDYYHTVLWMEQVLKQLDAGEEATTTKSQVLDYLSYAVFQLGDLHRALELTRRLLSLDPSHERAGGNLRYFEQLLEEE
property-name: Kd
Please report the result as a number followed by the unit.

Looking for the measured Kd of C[C@H](NC(=O)[C@@H]1CCCN1C(=O)CNC(=O)[C@@H]1C[C@@H](O)CN1C(=O)[C@@H]1CCCN1)C(=O)NCC(=O)N1CCC[C@H]1C(=O)N1C[C@H](O)C[C@H]1C(=O)NCC(=O)O , can you help?
26.2 µM

###

Reported ΔH values follow for various sequences
molecular target: PSB‐I^143–238 construct (peptide‐substrate–binding domain of C‐P4H‐I α‐subunit) (Homo sapiens); construct: made in house; host or cells: E. coli Rosetta(DE3)pLysS, pET22b(+); assay: ITC binding of proline‐rich peptides to the PSB‐I^143–238 construct; settings: 25°C, 20 mM Bis‐Tris, 100 mM glycine, pH 6.8, fixed n = 1, average ± SD of three measurements
No end group written: not given here.
Please report the result as a number followed by the unit.

Here's what some known entries look like.
Looking for the measured ΔH of PPGPPGPPG [(PPG)3, PPG‐PPG‐PPG peptide] , can you help?
-13.6 ± 1.7 kcal/mol

Looking for the measured ΔH of PPGPRGPPG [PPG‐PRG‐PPG] , can you help?
-14.9 ± 0.4 kcal/mol

Looking for the measured ΔH of PPGPEGPPG [PPG‐PEG‐PPG] , can you help?
-13.2 ± 1.2 kcal/mol

Here's the next entry for you.
Looking for the measured ΔH of PPPPPPPPP [P9, (Pro)9 peptide] , can you help?
-9.5 ± 0.8 kcal/mol
